molecular target: HLA-A*24:02; assay: IEDB peptide-MHC binding, purified MHC/competitive/radioactivity; filed as Kd, often an IC50 or EC50 that approximates it; bounds were set here for any values at or beyond the usual limits of such assays; conditions: source organism: Dengue virus 1 Singapore/S275/1990
reportedMetric: Kd (nM)
Write the number in nM without appending the unit.

Task: Kindly indicate its recorded Kd. Item: VTARWLWGF
Result: 152

* * *

Let's look at some sequences and their measured pIC50.
target: HLA-A*02:01; experiment: IEDB peptide-MHC binding, purified MHC/competitive/fluorescence; bounds were set here for any values at or beyond the usual limits of such assays; details: source organism: Vaccinia virus Copenhagen
pIC50: −log10 of the molar value.

Task: GET pIC50 | system: HLA-A*02:01 | item: SSQMTSTFI
Result: ≤ 4.14

Task: GET pIC50 | system: HLA-A*02:01 | item: LSSQMTSTF
Result: ≤ 3.81

* * *

biological target: HLA-B*07:02; experiment: IEDB peptide-MHC binding, purified MHC/direct/fluorescence; filed as Kd, often an IC50 or EC50 that approximates it; bounds were set here for any values at or beyond the usual limits of such assays; conditions: source organism: Shigella dysenteriae
reportedMetric: Kd

Task: Kindly indicate its recorded Kd. Item: AEMRETHWL
Result: ≥ 20 µM

* * *

molecular target: HLA-A*24:03; assay: IEDB peptide-MHC binding, purified MHC/direct/fluorescence; filed as Kd, often an IC50 or EC50 that approximates it; bounds were set here for any values at or beyond the usual limits of such assays; details: source organism: Vibrio cholerae
reportedMetric: Kd

Task: Kindly indicate its recorded Kd. Item: RPRIRLSAP
Result: ≥ 20 µM

* * *

molecular target: HLA-A*26:01; assay: IEDB peptide-MHC binding, purified MHC/direct/fluorescence; filed as Kd, often an IC50 or EC50 that approximates it; bounds were set here for any values at or beyond the usual limits of such assays; conditions: source organism: Corynebacterium efficiens
pKd: −log10 of the molar value.
reportedMetric: pKd

Task: Kindly indicate its recorded pKd. Item: KLGDQFGRK
Result: ≤ 4.70

* * *

biological target: HLA-A*11:01; test: IEDB peptide-MHC binding, purified MHC/competitive/fluorescence; filed as Kd, often an IC50 or EC50 that approximates it; bounds were set here for any values at or beyond the usual limits of such assays; details: source organism: Salmonella enterica subsp. enterica serovar Typhi
reportedMetric: Kd

Task: Kindly indicate its recorded Kd. Item: LSEEANWAF
Result: ≥ 20 µM

* * *

Let's look at some sequences and their measured Kd.
molecular target: HLA-A*32:01; assay: IEDB peptide-MHC binding, purified MHC/competitive/radioactivity; filed as Kd, often an IC50 or EC50 that approximates it; bounds were set here for any values at or beyond the usual limits of such assays; settings: source organism: Mammarenavirus guanaritoense

- constructSequence: "PTMEIEDQEY"
  Kd: "≥ 49.8 µM"

Task: Kindly indicate its recorded Kd. Item: SSSPTILDNY
Result: ≥ 69.9 µM

* * *

Let's look at some sequences and their measured Kd.
biological target: HLA-A*03:01; experiment: IEDB peptide-MHC binding, purified MHC/competitive/radioactivity; filed as Kd, often an IC50 or EC50 that approximates it; bounds were set here for any values at or beyond the usual limits of such assays; details: source organism: Mammarenavirus guanaritoense

// known answers, use as guide
- constructSequence: "NSYSLIRLSH"
  measuredOn: "HLA-A*03:01"
  Kd: "9.96 µM"
- constructSequence: "PCPLPHRLDR"
  measuredOn: "HLA-A*03:01"
  Kd: "≥ 70 µM"

# next sequence below
Task: Kindly indicate its recorded Kd. Item: NYTRFWYINH
Result: 9.02 µM
